src = patent US5521163A

System: Herpes Simplex Virus
protocol_text: Plaque reduction assay, HSV (type not given)
Format: cell-based, Herpes Simplex Virus types 1 (HSV 1) and 2 (HSV2)
test_parameters: read-out: 50% inhibitory concentration (IC50)
experimental_endpoint: IC50
Dear colleague, please send the value followed by its unit.

Returns the measured IC50 for the input compound. Input: O=c1[nH]c(=O)n([C@H]2C[C@H](O)[C@@H](CO)S2)cc1/C=C/Br [X=CH=CHBr, Y=OH]
660 nM

* * *

Tested on: HSV1
protocol_text: Plaque reduction assay, HSV-1 (strain SC16) in cell monolayers
Type: cell-based, Herpes Simplex Virus type 1
test_parameters: Human alphaherpesvirus 1, SC16, Table 1; β-anomers; HSV-1 strain SC16, plaque reduction
experimental_endpoint: IC50

Returns the measured IC50 for the input compound. Input: O=c1[nH]c(=O)n([C@H]2C[C@H](O)[C@@H](CO)S2)cc1/C=C/Br
600 nM
